TEST_SYSTEM: Histone deacetylase 1 (Homo sapiens)
METHOD_DESCRIPTION: Inhibition of recombinant human HDAC1 using a fluorogenic substrate at 10 uM by fluorescence method
Is inhibition at least 60%? Then Yes. If not, No.

INPUT: Textbook exercise: given the entry Cc1ccc(/C=C/C(=O)N2CCN(c3ccc(C(=O)Nc4ccccc4N)cc3)CC2)cc1 , state whether its inhibition is greater than or equal to 60%.
OUTPUT: Yes

INPUT: Textbook exercise: given the entry Nc1ccccc1NC(=O)c1ccc(N2CCN(C(=O)/C=C/c3ccc4c(c3)OCO4)CC2)cc1 , state whether its inhibition is greater than or equal to 60%.
OUTPUT: Yes

INPUT: Textbook exercise: given the entry Nc1ccccc1NC(=O)c1ccc(N2CCN(C(=O)/C=C/c3ccccc3)CC2)cc1 , state whether its inhibition is greater than or equal to 60%.
OUTPUT: Yes

INPUT: Textbook exercise: given the entry COc1ccc(/C=C/C(=O)N2CCN(c3ccc(C(=O)Nc4ccccc4N)cc3)CC2)cc1 , state whether its inhibition is greater than or equal to 60%.
OUTPUT: Yes

INPUT: Textbook exercise: given the entry Nc1ccccc1NC(=O)c1ccc(N2CCN(C(=O)/C=C/c3ccc(F)cc3)CC2)cc1 , state whether its inhibition is greater than or equal to 60%.
OUTPUT: Yes

INPUT: Textbook exercise: given the entry Nc1ccc(F)cc1NC(=O)c1ccc(CNC(=O)/C=C/c2cccnc2)cc1 , state whether its inhibition is greater than or equal to 60%.
OUTPUT: Yes

INPUT: Textbook exercise: given the entry Cc1ccc(/C=C/C(=O)N2CCN(c3ccc(C(=O)Nc4ccc(F)cc4N)cc3)CC2)cc1 , state whether its inhibition is greater than or equal to 60%.
OUTPUT: Yes

INPUT: Textbook exercise: given the entry Nc1cc(F)ccc1NC(=O)c1ccc(N2CCN(C(=O)/C=C/c3cccnc3)CC2)cc1 , state whether its inhibition is greater than or equal to 60%.
OUTPUT: No

INPUT: Textbook exercise: given the entry COc1ccc(/C=C/C(=O)N2CCN(c3ccc(C(=O)Nc4ccccc4N)cc3)CC2)cc1OC , state whether its inhibition is greater than or equal to 60%.
OUTPUT: Yes

INPUT: Textbook exercise: given the entry Nc1cc(F)ccc1NC(=O)c1ccc(N2CCN(C(=O)/C=C/c3ccc4c(c3)OCO4)CC2)cc1 , state whether its inhibition is greater than or equal to 60%.
OUTPUT: No

INPUT: Textbook exercise: given the entry Nc1ccccc1NC(=O)c1ccc(N2CCN(C(=O)/C=C/c3cccnc3)CC2)cc1 , state whether its inhibition is greater than or equal to 60%.
OUTPUT: No

INPUT: Textbook exercise: given the entry COc1cccc(/C=C/C(=O)N2CCN(c3ccc(C(=O)Nc4ccccc4N)cc3)CC2)c1 , state whether its inhibition is greater than or equal to 60%.
OUTPUT: Yes

====

TEST_SYSTEM: Histone deacetylase 1 (Homo sapiens, UniProt Q13547)
Sequence (Q13547 whole entry): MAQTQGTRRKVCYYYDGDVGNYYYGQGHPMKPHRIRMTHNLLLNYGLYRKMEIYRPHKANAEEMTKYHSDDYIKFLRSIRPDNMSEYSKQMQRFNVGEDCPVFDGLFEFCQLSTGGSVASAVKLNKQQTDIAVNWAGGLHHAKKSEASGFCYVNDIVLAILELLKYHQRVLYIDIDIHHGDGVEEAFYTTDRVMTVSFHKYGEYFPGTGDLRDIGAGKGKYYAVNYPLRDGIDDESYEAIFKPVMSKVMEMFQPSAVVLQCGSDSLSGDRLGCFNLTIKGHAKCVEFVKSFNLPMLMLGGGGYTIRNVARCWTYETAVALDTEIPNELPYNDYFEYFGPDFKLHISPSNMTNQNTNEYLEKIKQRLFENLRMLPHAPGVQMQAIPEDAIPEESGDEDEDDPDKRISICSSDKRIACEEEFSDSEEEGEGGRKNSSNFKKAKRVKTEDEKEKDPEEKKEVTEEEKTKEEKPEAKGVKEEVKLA
METHOD_DESCRIPTION: Inhibition of recombinant human HDAC1 using a fluorogenic substrate at 1 uM by fluorescence method
Give inhibition for every item shown.
Please respond with the number in % and leave the unit unwritten.

INPUT: Entry Cc1ccc(/C=C/C(=O)N2CCN(c3ccc(C(=O)Nc4ccccc4N)cc3)CC2)cc1 has what inhibition?
OUTPUT: 56.3

INPUT: Entry Nc1ccccc1NC(=O)c1ccc(N2CCN(C(=O)/C=C/c3ccc4c(c3)OCO4)CC2)cc1 has what inhibition?
OUTPUT: 49.6

INPUT: Entry COc1cccc(/C=C/C(=O)N2CCN(c3ccc(C(=O)Nc4ccccc4N)cc3)CC2)c1 has what inhibition?
OUTPUT: 45.3

INPUT: Entry Nc1ccccc1NC(=O)c1ccc(N2CCN(C(=O)/C=C/c3ccccc3)CC2)cc1 has what inhibition?
OUTPUT: 34.3

INPUT: Entry COc1ccc(/C=C/C(=O)N2CCN(c3ccc(C(=O)Nc4ccccc4N)cc3)CC2)cc1OC has what inhibition?
OUTPUT: 46.5

INPUT: Entry Nc1cc(F)ccc1NC(=O)c1ccc(N2CCN(C(=O)/C=C/c3cccnc3)CC2)cc1 has what inhibition?
OUTPUT: 4.71

INPUT: Entry COc1ccc(/C=C/C(=O)N2CCN(c3ccc(C(=O)Nc4ccccc4N)cc3)CC2)cc1 has what inhibition?
OUTPUT: 50.2

INPUT: Entry Nc1ccccc1NC(=O)c1ccc(N2CCN(C(=O)/C=C/c3cccnc3)CC2)cc1 has what inhibition?
OUTPUT: 18.1

INPUT: Entry Nc1ccccc1NC(=O)c1ccc(N2CCN(C(=O)/C=C/c3ccc(F)cc3)CC2)cc1 has what inhibition?
OUTPUT: 52

====

METHOD_DESCRIPTION: Clearance in Sprague-Dawley rat at 2 mg/kg, iv administered as single dose by HPLC-MS method
Format: ADME, organism-based
PARTICULARS: in vivo
REPORTED_METRIC: clearance (mL/min/kg)
Please respond with the number in mL/min/kg and leave the unit unwritten.

INPUT: Entry Cc1ccc(/C=C/C(=O)N2CCN(c3ccc(C(=O)Nc4ccccc4N)cc3)CC2)cc1 has what clearance?
OUTPUT: 7.5

====

METHOD_DESCRIPTION: Cmax in Sprague-Dawley rat at 10 mg/kg, po administered as single dose by HPLC-MS method
Type: ADME, organism-based
Parameters: dose 10 mg/kg, route oral
PARTICULARS: in vivo
REPORTED_METRIC: Cmax (ng/mL)
Please respond with the number in ng/mL and leave the unit unwritten.

INPUT: Entry Cc1ccc(/C=C/C(=O)N2CCN(c3ccc(C(=O)Nc4ccccc4N)cc3)CC2)cc1 has what Cmax?
OUTPUT: 2510

====

METHOD_DESCRIPTION: Oral bioavailability in Sprague-Dawley rat at 10 mg/kg administered as single dose by HPLC-MS method
Assay type: ADME, organism-based
PARTICULARS: in vivo
REPORTED_METRIC: bioavailability (%)
Please respond with the number in % and leave the unit unwritten.

INPUT: Entry Cc1ccc(/C=C/C(=O)N2CCN(c3ccc(C(=O)Nc4ccccc4N)cc3)CC2)cc1 has what bioavailability?
OUTPUT: 36.3

====

TEST_SYSTEM: Histone deacetylase 1 (Homo sapiens)
METHOD_DESCRIPTION: Inhibition of recombinant human HDAC1 expressed in Baculovirus insect cell expression system using [3H]-metabolically labeled acetylated histone substrate after 30 mins by scintillation counting
REPORTED_METRIC: IC50 (µM)
Please respond with the number in µM and leave the unit unwritten.

INPUT: Entry COc1ccc(/C=C/C(=O)NCc2ccc(C(=O)Nc3ccncc3N)cc2)cc1 has what IC50?
OUTPUT: 3.3

====

TEST_SYSTEM: Histone deacetylase 1 (Homo sapiens, UniProt Q13547)
METHOD_DESCRIPTION: Inhibition of recombinant human HDAC1 using a fluorogenic substrate at 1 uM by fluorescence method
Is inhibition at least 40%? Then true (1). If not, false (0).

INPUT: Textbook exercise: given the entry Cc1ccc(/C=C/C(=O)N2CCN(c3ccc(C(=O)Nc4ccc(F)cc4N)cc3)CC2)cc1 , state whether its inhibition is greater than or equal to 40%.
OUTPUT: false (0)

INPUT: Textbook exercise: given the entry COc1cc(/C=C/C(=O)N2CCN(c3ccc(C(=O)Nc4ccccc4N)cc3)CC2)cc(OC)c1OC , state whether its inhibition is greater than or equal to 40%.
OUTPUT: false (0)

INPUT: Textbook exercise: given the entry Nc1cc(F)ccc1NC(=O)c1ccc(N2CCN(C(=O)/C=C/c3ccc(F)cc3)CC2)cc1 , state whether its inhibition is greater than or equal to 40%.
OUTPUT: false (0)

INPUT: Textbook exercise: given the entry Nc1cc(F)ccc1NC(=O)c1ccc(N2CCN(C(=O)/C=C/c3ccc4c(c3)OCO4)CC2)cc1 , state whether its inhibition is greater than or equal to 40%.
OUTPUT: false (0)

INPUT: Textbook exercise: given the entry Nc1ccc(F)cc1NC(=O)c1ccc(CNC(=O)/C=C/c2cccnc2)cc1 , state whether its inhibition is greater than or equal to 40%.
OUTPUT: true (1)

====

METHOD_DESCRIPTION: Terminal half life in Sprague-Dawley rat at 2 mg/kg, iv administered as single dose by HPLC-MS method
Type: ADME, organism-based
PARTICULARS: in vivo, read-out: beta t1/2 (converted)
REPORTED_METRIC: half-life (min)
Please respond with the number in min and leave the unit unwritten.

INPUT: Entry Cc1ccc(/C=C/C(=O)N2CCN(c3ccc(C(=O)Nc4ccccc4N)cc3)CC2)cc1 has what half-life?
OUTPUT: 64.2

====

METHOD_DESCRIPTION: Tmax in Sprague-Dawley rat at 10 mg/kg, po administered as single dose by HPLC-MS method
Type: ADME, organism-based
PARTICULARS: in vivo
REPORTED_METRIC: Tmax (min)
Please respond with the number in min and leave the unit unwritten.

INPUT: Entry Cc1ccc(/C=C/C(=O)N2CCN(c3ccc(C(=O)Nc4ccccc4N)cc3)CC2)cc1 has what Tmax?
OUTPUT: 25.8

Origin of measurements: ChEMBL document CHEMBL4020782
